- Test system: SARS-CoV-2-NLuc in A549-hACE2 cells
- protocolText: microbe, parasite or virus in culture
- Type: cell-based, SARS Coronavirus 2
- conditions: Severe acute respiratory syndrome coronavirus, 48 h, read-out: MPro EC50 (nM)
Criterion: EC50 strictly less than 700 nM. Met: satisfied. Not met: not satisfied.

Some solved entries appear below for comparison.
[
  {
    "molecule": "COc1cc(-c2cc3[nH]c(=O)n(-c4cncc(C)c4)c(=O)c3o2)c(Cl)cc1F [Example 56]",
    "assayedTarget": "SARS-CoV-2-NLuc in A549-hACE2 cells",
    "qualitativeLabel": "satisfied"
  },
  {
    "molecule": "N#CCCn1c(=O)n(-c2cncc3ccccc23)c(=O)c2oc(-c3ccc(F)cc3Cl)cc21 [Example 25]",
    "assayedTarget": "SARS-CoV-2-NLuc in A549-hACE2 cells",
    "qualitativeLabel": "satisfied"
  },
  {
    "molecule": "COc1cc(-c2cc3c(o2)c(=O)n(-c2cncc(C)c2)c(=O)n3CCC#N)c(Cl)cc1F [Example 58]",
    "assayedTarget": "SARS-CoV-2-NLuc in A549-hACE2 cells",
    "qualitativeLabel": "satisfied"
  },
  {
    "molecule": "O=c1[nH]c2oc(-c3ccccc3Cl)cc2c(=O)n1-c1cncc2ccccc12 [Example 14]",
    "assayedTarget": "SARS-CoV-2-NLuc in A549-hACE2 cells",
    "qualitativeLabel": "not satisfied"
  },
  {
    "molecule": "O=c1[nH]c2oc(-c3ccccc3)nc2c(=O)n1-c1cncc2ccccc12 [Example 13]",
    "assayedTarget": "SARS-CoV-2-NLuc in A549-hACE2 cells",
    "qualitativeLabel": "not satisfied"
  }
]

// query Consider the molecule COc1ccc(Cl)c(-c2cc3[nH]c(=O)n(-c4cncc5ccccc45)c(=O)c3o2)c1 [Example 3] . Is its EC50 strictly less than 700 nM?
// result satisfied

// query Now the same for COc1ccc2cncc(-n3c(=O)c4oc(-c5ccccc5Cl)cc4n(CC#N)c3=O)c2c1 [Example 41]
// result satisfied

// query Now the same for COc1cc(-c2cc3c(o2)c(=O)n(-c2cnnc(C)c2)c(=O)n3CCC#N)c(Cl)cc1F [Example 27]
// result not satisfied

// query Now the same for N#CCn1c(=O)n(-c2cncc3c2CCCC3)c(=O)c2oc(-c3ccccc3Cl)cc21 [Example 42]
// result satisfied

// query Now the same for COc1cc(-c2cc3c(o2)c(=O)n(-c2cncc4cnn(C)c24)c(=O)n3CCC#N)c(Cl)cc1F [Example 17]
// result satisfied

// query Now the same for COc1ccc2cncc(-n3c(=O)c4oc(-c5ccccc5Cl)cc4n(C)c3=O)c2c1 [Example 32]
// result satisfied
